- system_under_test: serotonin 5HT1A receptor (Homo sapiens (Human))
- Sequence (P08908 whole entry): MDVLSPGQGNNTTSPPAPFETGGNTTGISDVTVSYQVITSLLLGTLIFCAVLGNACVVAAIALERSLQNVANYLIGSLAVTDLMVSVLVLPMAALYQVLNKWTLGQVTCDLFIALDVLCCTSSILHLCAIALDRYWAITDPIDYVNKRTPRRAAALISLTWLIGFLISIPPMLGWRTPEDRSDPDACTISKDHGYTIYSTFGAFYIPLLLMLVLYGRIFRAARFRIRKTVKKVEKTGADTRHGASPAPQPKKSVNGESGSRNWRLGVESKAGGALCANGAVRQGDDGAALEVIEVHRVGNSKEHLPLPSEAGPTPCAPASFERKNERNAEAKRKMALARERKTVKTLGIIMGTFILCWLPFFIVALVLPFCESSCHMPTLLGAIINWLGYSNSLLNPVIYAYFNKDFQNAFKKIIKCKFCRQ
- test_name: Serotonin receptor binding, 5HT1A
- assay_context: ratio of affinities
- Text: The procedures to determine the binding affinities at the human dopamine D2-like receptors, the binding affinities at the serotonin 5HT1A, 5HT2A and 5HT2c receptors and functional mitogenesis assay are known in the art. See J. Med. Chem. 2005, 48, 839-848. See also, NIDA Research Monograph #178, Proceedings of the College of Drug Dependence, p. 440-466, 1998. Both of these references are incorporated by reference.
endpoint: 5HT1A/D3
Provide a numeric answer; units are not to be included.

According to the records, this molecule COc1ccccc1N1CCN(CC(O)CCNC(=O)c2ccc(-c3ccccn3)cc2)CC1 (stereo not shown) displays 5HT1A/D3 of 13

According to the records, this molecule O=C(NCCC(O)CN1CCN(c2cccc(Cl)c2Cl)CC1)c1ccc(-c2ccccn2)cc1 (stereo not shown) displays 5HT1A/D3 of 11

According to the records, this molecule O=C(NCC(O)CCN1CCN(c2cccc(Cl)c2Cl)CC1)c1ccc(-c2ccccn2)cc1 (stereo not shown) displays 5HT1A/D3 of 30

According to the records, this molecule "Cc1cccnc1-c1ccc(C(=O)NC/C=C/CN2CCN(c3cccc(Cl)c3Cl)CC2)cc1" displays 5HT1A/D3 of 58

----------
- system_under_test: human dopamine D2-long (D2) receptor (Homo sapiens (Human))
- Sequence (P14416 whole entry): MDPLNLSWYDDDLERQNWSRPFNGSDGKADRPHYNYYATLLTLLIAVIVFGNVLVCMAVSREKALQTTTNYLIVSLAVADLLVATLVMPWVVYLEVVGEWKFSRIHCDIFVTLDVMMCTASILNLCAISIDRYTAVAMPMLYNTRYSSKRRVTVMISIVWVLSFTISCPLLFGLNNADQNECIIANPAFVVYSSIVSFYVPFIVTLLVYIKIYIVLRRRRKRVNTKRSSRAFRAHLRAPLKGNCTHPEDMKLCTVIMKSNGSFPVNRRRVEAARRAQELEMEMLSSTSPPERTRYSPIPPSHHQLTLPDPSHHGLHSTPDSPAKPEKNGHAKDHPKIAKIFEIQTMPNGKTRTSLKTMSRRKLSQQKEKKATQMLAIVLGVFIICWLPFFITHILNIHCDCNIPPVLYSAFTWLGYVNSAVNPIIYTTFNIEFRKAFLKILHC
- test_name: Human D2-like receptor competition binding in HEK cells, D2
- assay_context: hD2L
Field: Ki. Provide a value for each of the molecules that follow.
The reply should read as a number followed by its unit.

Observed Ki, human dopamine D2-long (D2) receptor (Homo sapiens (Human)), O=C(NCCC(O)CN1CCN(c2cccc(Cl)c2Cl)CC1)c1cc2cc(F)ccc2o1 (centres unmarked) : 245 nM

Observed Ki, human dopamine D2-long (D2) receptor (Homo sapiens (Human)), "COc1ccccc1N1CCN(C/C=C/CNC(=O)c2ccc3c(c2)Cc2ccccc2-3)CC1" : 48.4 nM

Observed Ki, human dopamine D2-long (D2) receptor (Homo sapiens (Human)), O=C(NCC(O)CCN1CCN(c2cccc(Cl)c2Cl)CC1)c1cc2ccccc2[nH]1 (centres unmarked) : 28.4 nM

Observed Ki, human dopamine D2-long (D2) receptor (Homo sapiens (Human)), COc1ccccc1N1CCN(CC(O)CCNC(=O)c2cc3ccccc3o2)CC1 (centres unmarked) : 233 nM

Observed Ki, human dopamine D2-long (D2) receptor (Homo sapiens (Human)), "O=C(NC/C=C/C[N+]1([O-])CCN(c2cccc(Cl)c2Cl)CC1)c1ccc(-c2ccccn2)cc1" : 1160 nM

Observed Ki, human dopamine D2-long (D2) receptor (Homo sapiens (Human)), COc1ccccc1N1CCN(CC(O)CCNC(=O)c2ccc3c(c2)Cc2ccccc2-3)CC1 (centres unmarked) : 249 nM

Observed Ki, human dopamine D2-long (D2) receptor (Homo sapiens (Human)), COc1ccc2oc(C(=O)NCCC(O)CN3CCN(c4ccccc4OC)CC3)cc2c1 (centres unmarked) : 174 nM

Observed Ki, human dopamine D2-long (D2) receptor (Homo sapiens (Human)), O=C(NCCC(O)CN1CCN(c2cccc(Cl)c2Cl)CC1)c1cc2cc(I)ccc2o1 (centres unmarked) : 697 nM

----------
Field: log10 Ki. Provide a value for each of the compounds that follow.
- system_under_test: human dopamine D3 receptor (Homo sapiens (Human), UniProt P35462)
- Sequence (P35462 whole entry): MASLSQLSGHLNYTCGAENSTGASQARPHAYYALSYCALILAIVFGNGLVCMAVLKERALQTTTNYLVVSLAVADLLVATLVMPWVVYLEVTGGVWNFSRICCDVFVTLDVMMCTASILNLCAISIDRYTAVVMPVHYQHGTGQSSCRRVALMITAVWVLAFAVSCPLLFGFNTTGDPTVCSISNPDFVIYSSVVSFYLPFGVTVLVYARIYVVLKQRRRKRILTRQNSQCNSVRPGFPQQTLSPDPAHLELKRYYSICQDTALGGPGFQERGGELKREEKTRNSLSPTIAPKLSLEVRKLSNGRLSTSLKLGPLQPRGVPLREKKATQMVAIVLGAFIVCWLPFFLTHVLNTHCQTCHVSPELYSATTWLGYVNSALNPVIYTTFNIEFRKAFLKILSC
- test_name: Human D2-like receptor competition binding in HEK cells, D3
- assay_context: Table 3, unit inferred; with spread; read-out: D3 binding affinity
# log10 transformed; quantity=Ki; unit=nM

According to the records, this compound "O=C(NC/C=C/CN1CCN(c2cccc(Cl)c2Cl)CC1)c1ccc(-c2cccc(=O)[nH]2)cc1" displays log10 Ki of -0.22

According to the records, this compound "Cc1cccc(-c2ccc(C(=O)NC/C=C/CN3CCN(c4cccc(Cl)c4Cl)CC3)cc2)n1" displays log10 Ki of 0.15

According to the records, this compound O=C(NCC(O)CCN1CCN(c2cccc(Cl)c2Cl)CC1)c1ccc(-c2ccccn2)cc1 (stereo not shown) displays log10 Ki of -0.30

According to the records, this compound COc1ccccc1N1CCN(CC(O)CCNC(=O)c2ccc(-c3ccccn3)cc2)CC1 (stereo not shown) displays log10 Ki of 0.45

According to the records, this compound "O=C(NC/C=C/CN1CCN(c2cccc(Cl)c2Cl)CC1)c1ccc(-c2cccc[n+]2[O-])cc1" displays log10 Ki of 0.04

According to the records, this compound "COc1ccccc1N1CCN(C/C=C/CNC(=O)c2ccc(-c3ccccn3)cc2)CC1" displays log10 Ki of 0.46

According to the records, this compound O=C(NCCC(O)CN1CCN(c2cccc(Cl)c2Cl)CC1)c1ccc(-c2ccccn2)cc1 (stereo not shown) displays log10 Ki of 0.48

According to the records, this compound O=C(NCCC(O)CN1CCN(c2cccc(Cl)c2Cl)CC1)c1ccc2c(c1)Cc1ccccc1-2 (stereo not shown) displays log10 Ki of 0.26

According to the records, this compound "Cc1cccnc1-c1ccc(C(=O)NC/C=C/CN2CCN(c3cccc(Cl)c3Cl)CC2)cc1" displays log10 Ki of 0.20

According to the records, this compound CC(=O)OC(CCNC(=O)c1ccc(-c2ccccn2)cc1)CN1CCN(c2cccc(Cl)c2Cl)CC1 (stereo not shown) displays log10 Ki of 1.07

----------
Field: 5HT2A/D3. Provide a value for each of the compounds that follow.
- system_under_test: serotonin 5HT2A receptor (Homo sapiens (Human), UniProt P28223)
- Sequence (P28223 whole entry): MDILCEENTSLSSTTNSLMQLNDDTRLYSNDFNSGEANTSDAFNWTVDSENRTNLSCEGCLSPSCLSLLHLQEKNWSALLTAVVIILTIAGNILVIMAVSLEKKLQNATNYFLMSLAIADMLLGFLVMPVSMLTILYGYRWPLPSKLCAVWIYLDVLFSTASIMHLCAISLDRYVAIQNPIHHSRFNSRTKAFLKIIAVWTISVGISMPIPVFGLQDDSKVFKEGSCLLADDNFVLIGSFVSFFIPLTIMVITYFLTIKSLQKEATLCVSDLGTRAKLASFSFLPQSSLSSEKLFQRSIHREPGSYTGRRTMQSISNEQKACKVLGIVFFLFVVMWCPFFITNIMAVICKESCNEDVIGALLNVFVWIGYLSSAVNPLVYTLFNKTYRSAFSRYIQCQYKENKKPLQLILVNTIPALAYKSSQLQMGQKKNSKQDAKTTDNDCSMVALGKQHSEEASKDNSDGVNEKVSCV
- test_name: Serotonin receptor binding, 5HT2A
- assay_context: ratio of affinities
- From the text: The procedures to determine the binding affinities at the human dopamine D2-like receptors, the binding affinities at the serotonin 5HT1A, 5HT2A and 5HT2c receptors and functional mitogenesis assay are known in the art. […] Both of these references are incorporated by reference.
Provide a numeric answer; units are not to be included.

According to the records, this compound O=C(NCCC(O)CN1CCN(c2cccc(Cl)c2Cl)CC1)c1ccc(-c2ccccn2)cc1 (stereo not shown) displays 5HT2A/D3 of 14

According to the records, this compound CC(=O)OC(CCNC(=O)c1ccc(-c2ccccn2)cc1)CN1CCN(c2cccc(Cl)c2Cl)CC1 (stereo not shown) displays 5HT2A/D3 of 7

According to the records, this compound O=C(NCCC(O)CN1CCN(c2cccc(Cl)c2Cl)CC1)c1ccc2c(c1)Cc1ccccc1-2 (stereo not shown) displays 5HT2A/D3 of 303

According to the records, this compound O=C(NCC(O)CCN1CCN(c2cccc(Cl)c2Cl)CC1)c1ccc(-c2ccccn2)cc1 (stereo not shown) displays 5HT2A/D3 of 31

According to the records, this compound COc1ccccc1N1CCN(CC(O)CCNC(=O)c2ccc(-c3ccccn3)cc2)CC1 (stereo not shown) displays 5HT2A/D3 of 248

According to the records, this compound "Cc1cccc(-c2ccc(C(=O)NC/C=C/CN3CCN(c4cccc(Cl)c4Cl)CC3)cc2)n1" displays 5HT2A/D3 of 66

According to the records, this compound "Cc1cccnc1-c1ccc(C(=O)NC/C=C/CN2CCN(c3cccc(Cl)c3Cl)CC2)cc1" displays 5HT2A/D3 of 29

----------
Counter-ions that a name gives are not always drawn.
Field: melting point. Provide a value for each of the compounds that follow.

According to the records, this compound Cc1cccc(-c2ccc(C(=O)NC/C=C/CN3CCN(c4cccc(Cl)c4Cl)CC3)cc2)n1 (as salt: oxalate) displays melting point of 125 to 126 °C

According to the records, this compound COc1ccccc1N1CCN(C/C=C/CNC(=O)c2ccc(-c3ccccn3)cc2)CC1 (as salt: hydrochloride) displays melting point of 168 to 170 °C

According to the records, this compound O=C(NC/C=C/CN1CCN(c2cccc(Cl)c2Cl)CC1)c1ccc(-c2cccc[n+]2[O-])cc1 (as salt: oxalate) displays melting point of 153 to 154 °C

According to the records, this compound COc1ccccc1N1CCN(CCCCNC(=O)c2ccc3c(c2)Cc2ccccc2-3)CC1 (as salt: hydrochloride) displays melting point of 208 to 210 °C

According to the records, this compound O=C(NCCC(O)CN1CCN(c2cccc(Cl)c2Cl)CC1)c1ccc2c(c1)Cc1ccccc1-2 (stereo not shown) (as salt: oxalate) displays melting point of 188 to 190 °C

According to the records, this compound COc1ccccc1N1CCN(C/C=C/CNC(=O)c2ccc3c(c2)Cc2ccccc2-3)CC1 (as salt: hydrochloride) displays melting point of 224 to 226 °C

According to the records, this compound O=C(NC/C=C/CN1CCN(c2cccc(Cl)c2Cl)CC1)c1ccc(-c2cccc(=O)[nH]2)cc1 (as salt: oxalate) displays melting point of 153 to 154 °C

----------
Field: partial agonist activity: % stimulation, D3. Provide a value for each of the molecules that follow.
- system_under_test: human dopamine D3 receptors in CHO cells (Homo sapiens (Human))
- test_name: D3 stimulation of mitogenesis (agonist assay)
- Assay type: cell-based
- assay_context: CHOp cells
Give the value in % but do not write % after it.

According to the records, this molecule O=C(NCC(O)CCN1CCN(c2cccc(Cl)c2Cl)CC1)c1ccc(-c2ccccn2)cc1 (stereo not shown) [Compound 21] displays partial agonist activity: % stimulation, D3 of 20

According to the records, this molecule O=C(NCCC(O)CN1CCN(c2cccc(Cl)c2Cl)CC1)c1ccc(-c2ccccn2)cc1 (stereo not shown) [Compound 16] displays partial agonist activity: % stimulation, D3 of 48

According to the records, this molecule CC(=O)OC(CCNC(=O)c1ccc(-c2ccccn2)cc1)CN1CCN(c2cccc(Cl)c2Cl)CC1 (stereo not shown) [Compound 20] displays partial agonist activity: % stimulation, D3 of 47

According to the records, this molecule O=C(NCCC(O)CN1CCN(c2cccc(Cl)c2Cl)CC1)c1ccc2c(c1)Cc1ccccc1-2 (stereo not shown) [Compound 17] displays partial agonist activity: % stimulation, D3 of 26
